Provenance of the data: ChEMBL document CHEMBL4513216

# protocol-description: Toxicity liver stage against HepG2, at 10uM
# Format: cell-based
# Parameters: test concentration 10 uM, cell line HepG2-A16-CD81EGFP
# condition-context: human, HepG2-A16-CD81EGFP cells; read-out: INHIBITION
measured-endpoint: cytotoxicity at 10 µM (%)
One number for each entry, in %.

I would be grateful if you could provide cytotoxicity at 10 µM for each of the following entries.
1. COc1ccc2c(c1)CN(Cc1nc3ccsc3c(=O)[nH]1)CC2
2. CCN(CC)C(=O)c1nc2c(s1)CCN(Cc1cccc(OC)c1)CC2
3. CC(C)c1nccn1C1CCCN(C(=O)c2cccc3c2OCO3)C1 (stereo not drawn)

Result block:
1. -4.64
2. 2.77
3. -7.71

* * *

# protocol-description: Toxicity liver stage against HepG2, at 10uM
# Format: cell-based
# Set-up: test concentration 10 uM, cell line HepG2-A16-CD81EGFP
# condition-context: human, HepG2-A16-CD81EGFP cells; read-out: INHIBITION
measured-endpoint: cytotoxicity at 10 µM (%)
Give bare numbers, in %.

# example entries with known answers
compound: COCCCNC(=O)CN1CCC(N2CCN(C)C2=O)CC1
cytotoxicity at 10 µM / %: -2.54
//
compound: CCS(=O)(=O)N1CCC(c2nccn2Cc2ccncc2)CC1
cytotoxicity at 10 µM / %: -4
//
compound: CC(C)n1ccnc1C1CCN(C(=O)c2ccccc2N(C)C)CC1
cytotoxicity at 10 µM / %: 4.67
//
compound: CCC(=O)N1CCN(C(=O)c2ccc(COC)o2)[C@H]2CS(=O)(=O)C[C@H]21
cytotoxicity at 10 µM / %: -10.9
//
compound: CC(C)c1nc2c(n1C)CCN(Cc1nc(-c3ccsc3)no1)C2
cytotoxicity at 10 µM / %: -6.46

Would you mind giving cytotoxicity at 10 µM for every compound in the list below?
1. CN(c1ccc(F)c(F)c1)S(=O)(=O)c1cc2c(c(C(=O)O)c1)OCCO2
2. CNC(=O)[C@@]12CCCN(c3ncccn3)[C@@H]1CN(c1ncc(C)cn1)C2
3. CCn1nc(C)c(S(=O)(=O)Nc2ccccc2C(=O)OC)c1C
4. Cc1ccc(CNC(c2ccc(F)cc2)c2nccn2C)o1 (configuration not stated)
5. CS(=O)(=O)N1CCOCC12CCN(Cc1ccoc1)CC2
6. CC(C)CCN1CCN(Cc2nc(C(C)C)no2)CC1
7. CC(C)Oc1ncnc2c1CCN(Cc1ccc(F)cc1)CC2

Result block:
1: -5.38; 2: 3.97; 3: -0.678; 4: 0.841; 5: 7.81; 6: -6.71; 7: 5.68

* * *

Consider the following molecules; for each one, report its cytotoxicity at 10 µM.
# protocol-description: Toxicity liver stage against HepG2, at 10uM
# Type: cell-based
# Parameters: test concentration 10 uM, cell line HepG2-A16-CD81EGFP
# condition-context: human, HepG2-A16-CD81EGFP cells; read-out: INHIBITION
One number for each entry, in %.

Example entries begin here.
molecule: CN(c1ccc(C(=O)NCCN2CCOCC2)c(Cl)c1)S(C)(=O)=O
obs-value: -11.1
//
molecule: CCc1ccc(C(=O)N2CCC(c3nncn3CC)CC2)o1
obs-value: 3.14
//
molecule: CN(Cc1cccs1)S(=O)(=O)c1ccc(C(F)(F)F)nc1
obs-value: -5.68
//
molecule: O=C(NC1CC1)C1CN(Cc2ccc3c(c2)OCCO3)CCN1 (configuration not stated)
obs-value: -3.22
//
molecule: CSc1ccc2cc(CN(C)CCc3cn[nH]c3)c(=O)[nH]c2c1
obs-value: -7.23

Your task in this section: give cytotoxicity at 10 µM for each listed record.
1. CC(=O)NCC(=O)N1CCC2(CC1)NC(=O)CC2c1cnn(C)c1 (configuration not stated)
2. CCCc1nc(C(=O)N2CCCn3nc(CCC(=O)O)cc3C2)cs1
3. Cc1cc(Cl)ccc1NCC(=O)Nc1cc(C(C)(C)C)no1
4. c1ccc(CCCn2ccnc2-c2cn(C3CCNCC3)nn2)nc1
5. CN1CCC(Oc2ccc(-n3ccnc3-c3nccn3C)cc2)CC1
6. Cc1ccc(NC(=O)[C@H]2C[C@H](C(=O)O)CN(CC(C)C)C2)cn1

Result block:
-0.113
-9.84
0.521
-1.86
-7.41
9.9
